Experiment: yeast display, Sf9 membrane polyspecificity reagent, FACS + sequencing; frameworks hold sequencing errors
READOUT: polyreactivity (PSR sort gate)

Before answering, review these 5 worked examples.
QVQLVESGGGLVQAGGSLRLSCAASGSTFWKYAMGWYRQAPGKEREFVAAITRSGGNTYYADSVKGRFTISRDNAKNTVYLQMNSLKPEDTAVYYCAKVYKLITSYRGFGYWGQGTQVTVSS = high polyreactivity
QVQLVESGGGLVQAGGSLRLSCAASGRIFDKYTMGWYRQAPGKERELVATITRGGVSMYYADSVKGRFTISRDNAKNTVYLQMNSLKPEDTAVYYCNAVWRLRVRYGYWGQGTQVTVSA = high polyreactivity
QVQLVESGGGLVQAGGSLRLSCAASGFIFYYNAMGWYRQAPGKERELVAAISASGDRTYYADSVKGRFTISRDNAKNTVYLQMNSLKPEDTAVYYCAARSQGARYSSRRRFGDYWGQGTQVTVSS = high polyreactivity
QVQLVDSGGGLVQGGGRLRLSCAASGFTLQSNAMGWYRQAPGKERELVAAISFRGGSTYYADSVKGRFTISRDNAKNTVYLQKNSLKPEDTAVYYCAADFYVHSAYYYGYWGQGTQVTVSS = low polyreactivity
QVQLVESGGGLVQAGGSLRLSCAASGRISVFNAMGWYRQAPGKERELVAAITSGGSTNYADSVKGRFTISRDNAKNTVYLQMNSLKPEDTAVYYSNADVYHSHEPHYDYWGQGTQVTVSS = low polyreactivity

Record QVQLVESGGGLVQAGGSLRLSCAASGIIFYDYAMGWYRQAPGKERELVAAISRSGGSTYYADSVKGRFTISRDNAKNTVYLQMNSLKPEDTAVYYCNADEVVWGYNYWGQGTQVTVSS , field polyreactivity (PSR sort gate): low polyreactivity

polyreactivity (PSR sort gate) for QVQLVESGGGLVQAGGSLRLSCAASGSTLVIYAMGWYRQAPGKERELVAAINFSDGSTSYADSVKGRFTISRDNAKNTVYLQMNSLKPEDTAVYYWGQGTQVTVSS is low polyreactivity

Entry QVQLVESGGGLVQAGGSLRLSCAASGSTFLLYAMGWSRQAPGKERELVASISGDGSTNYADSVKGRFTISRDNAKNTVYLQMNSLKPEDTAVYYCARDTVHRLRISSVISNYWGQGTQVTVSS ; polyreactivity (PSR sort gate) = low polyreactivity

The recorded polyreactivity (PSR sort gate) for QVQLVESGGGLVQAGGSLRLSCAASGRIFGGYAMGWYRQAPGKERELVAAISSRGGSTYYADSVKGRFTISRDNAKNTVYLQMNSLNPEDTAVYYCARTKYGRYRYGEYDYWGQGTQVTVSS is high polyreactivity

Record QVQLVESGGGLVQAGGSLRISCAASGFTFSYYAMGWYRQAPGKERDLVAAISGRTGRTYYADSVKGRFTISRDNAKNTVYLQMNSLKPEDTAVYYCAAGYTFSRYDDDYWGQGTQVTVSW , field polyreactivity (PSR sort gate): low polyreactivity

Reported polyreactivity (PSR sort gate) for QVQLVESGGGLVLAGGSLRLSCASSGRIFYGYAMVWSRQAPGKERELVAAITSSGRTYYADSVKGRFSISRDNAKNTVYLLMNSLKPEDTAVYYCNVVTKFTGRGYDFWGQGTQVTVSS was high polyreactivity

###

Assay: yeast display, Sf9 membrane polyspecificity reagent, FACS + sequencing; frameworks hold sequencing errors
READOUT: polyreactivity (PSR sort gate)

Worked cases, answers included:
QVQLVESGGGLVQAGGSLRLICAASGFIFLVNAMGWYRQAPGKERELVAAISLSTTSTYYADSVKGRFTISRDNAKNTVYLQMNSLKPEDTAVYYCAADHWGVGAPTYGQYTTHDYWGQGTQVTVSS = low polyreactivity
QVQLVESGGGLVHAGGSLRLSCAASGFTIPYYAMGWYRQAPGKERELVAAIRISGGSTYYADSVKGRFTISRDNAKNTVYLQMNSLKPEDTAVYYCAADYRYRSRFYYWGQGTQVTVSS = low polyreactivity
QVQLVESGGGLVQAGGSLRLSCAASGSIFTPNTMGWYRQAPGKEREFVAAINTSGSTNYADSVKGRFTISRDNAKNTVYLQLNSLKPEDTAVYYCAAGIVVTGYDYWGQGTQVTVSS = low polyreactivity
QVQLVESGGGLVQAGGSLRLSCAASGSIFEYNAMGWYRQAPGKERELVAAISWSSGTTYYADSVKGRFTISRDNAKNTVYLQMNSLKPEDTAVYYCAAVRWYVPGDVGYWGQGTQVTVSS = low polyreactivity

The recorded polyreactivity (PSR sort gate) for QVQLVESGGGLVQAGGSLRLSCAASGSIFRYNAMGWYRQAPGKERELVAAIRSGGSTYYADSVKGRFTISRDNAKNTVYLQMNSLKPEDTAVYYCNARRYVGYDYWGQGTQVTVSS is high polyreactivity

# polyreactivity (PSR sort gate) (sequence: QVQLVESGGGLVQAGGSLRLSCDASGSIFGSYVMGWSRQAPGKERELVAAISSSGASTYYADSVKGRFTISRDNAKNTVYLQMNSLKPEDTAVYYCATTRRPYVRGYPHYYWGQGTQVTVSS ) is high polyreactivity

Entry under test: QVQLVESGGGLVQAGGSLRLSCAASGRTFRKYAMGWYRQAPGKERELVAAISWSGGSTYYANSVKGRFTISRVNAKNTVYLQMNSLKPEDTAVYYCAAVPVDTGSLYWGFTTGYDYWGQGTQVTVSS . Its polyreactivity (PSR sort gate) was low polyreactivity

###

Assay: yeast display, Sf9 membrane polyspecificity reagent, FACS + sequencing; frameworks hold sequencing errors
READOUT: polyreactivity (PSR sort gate)

QVQLVESGGCLVQAGGSLRLSCAASGSIFYSYAMGWYRQAPGKEMELVADISSDGSTNYADSVKGRFTISRDNAKNTVYLQMNSLKPEDTAVYYCAKKPSSARYVTIGFDYWGQGTQVTVSS = low polyreactivity
QVQLVESGGGLVQAGGSLRLSFAASGLIFSYYAMVWYRQAPGKERELVAAISSSGGSTYYADSVKGRFTISRDYAKNTVYLQMNSLKPEDTAVYYCARKLTRRFYQYDYWGQGTQVTVSS = high polyreactivity
QVQLVESGGGLVQAGGSLRLSCAASGFTFKRYDMGWYRQAPGKERELVAAISWNGGSTYYADSVKGRFTISRDNAKNTVYLQMNSLKPEDTAVYYCAARFAYPPKRYYWGQGTQVTVSS = high polyreactivity
QVQLVESGGGLVQAGGSLRLSSAASGRLFSEYAMGWYRQAPGKERELVAAISRRGGRTYYADSVKGRFTISRDNAKNTVYVQMNSLIPEDTAVYYCAADHGDPGGYDYWGQGSQVTVSS = high polyreactivity

// sample QVQLVESGGGLVQAGGSLRLSCAASGRTFPYYAMGWSRQAPGKERELVAAITRGGNTNYADSVKGRFTISRDNAKNTVYLQMNSLKPEDTAVYYCAALVRAGPRRGTIYDYWGQGTQVTVSS , its polyreactivity (PSR sort gate) was high polyreactivity

For QVQLVESGGGLVQAGGSLRLSCAASGRTFHYYAMGWYRQAPGKERELVAAINFSGDNTYYADSVKGRFTISRDNAKNTVYLQLNSLKPEDTAVYYCAARREYARYKGYYYWGQGTQVTVSS the sequence record lists polyreactivity (PSR sort gate) as low polyreactivity

For QVQLVESGGGLVQAGGRLRLSCASSGITFTFNAMGRYTQAPGKEMELVAAITWSGGSTFYADSVKGRFTISRDNAKNSVYLQMNSLIPEDTAVYYCARDTELYVRWLDYWGQGTQVTVSS the sequence record lists polyreactivity (PSR sort gate) as low polyreactivity

Given item QVQLVESGGGLVQAGGSLRLSCAASGSTFGYYAMGWYIQAPGKERELVAAISWPGGSTYYADSVKGRFTISRDNAKNTVYLQMNSLKPEYTAVYYCAADTPYWQSSKYDYWGQGTQVSVSS , the value recorded as its polyreactivity (PSR sort gate) is high polyreactivity

polyreactivity (PSR sort gate) reading for QVQLVESGGGLVQAGGSLRLSCAASGITFYGYAMGWYRQAPGKERELVARISSGGTTKYADSVKGRFTISRDNAKNTVYLQMNSLKPEDTAVYYCAVGGSWWYYGFYYWGQATQVTVSS : high polyreactivity

Measured polyreactivity (PSR sort gate), QVQLVESGGGLVQAGGSLRLSCAASGFTFWRNALGWYRQAPGKERELVAAISWRGGSTYYADSVKGRFTISRDNAKNTVSLQINSRKPEDTAGYYCNVVYFRYYSGEYDYGGQGTQVTVSS : high polyreactivity

Entry QVQLVESGGGLVQAGGSLRLSCAASGRISESNDMGWYRQAPGKERELVAAISSSGGSTYYADSVKGRFTISRDNAKNTVYLQMNSLKPEDTAVYYCAAQTGYSYGITWQFTKYNYWGQGTQVTVSS — recorded polyreactivity (PSR sort gate) = low polyreactivity

###

Test: yeast display, Sf9 membrane polyspecificity reagent, FACS + sequencing; frameworks hold sequencing errors
READOUT: polyreactivity (PSR sort gate)

Worked examples follow.
QVHLVESGGGLDQAGGSLRLICPASGLIFYRYAMGWYRQAPGKERELVAAITTNGARTYYADSVKGRFTISRDNAKNTVYLQMNSLIPEDTAVYYCAGYGAGKFWAEHNYWGQGTQVTVSS = high polyreactivity
QVQLVESGGGLVQAGGSLRLSCAPSGRTFWYNAMGWYRQAPGKERELVATITSGGRTSYADSVKGRFTISRDNAKNTVYLQMNSLKPEDTAVYYCAATTGWYGARYGYWGQGTQVTVSS = high polyreactivity
QVQLVESGGGLVQAGGSLRLTCAASGRTFRYYVMGWYRQAPGKERELVASITSDATYYADSVKGRFTISRDNAKNTVYLQLNSLKPEDTAVYYCAKRYPYRHRTYNPVAYDYWGQGTQVTVSS = high polyreactivity
QVNLVDSGGRLVQAGGSLRLSCAASGRIFYRYAMGWYIQAPGKERELVAAISRRGGSTYYADSVKGRFTISRDNAKNTVYLQMNSLNPEDTAVYYCNVYRSAFSYDSWGQCTQVTVSS = high polyreactivity
QVQLVESGGGLVQAGGSLRLSCAASGFIFGTYAMGWYRQAPGNERELVAAISVGGGSTYYADSVKGRFTISRDNAKNTVYLQMNSLKPEDTAVYYCAAVQLYQKHQITYVAHEYWGQGTQVTVSS = low polyreactivity
QVQLVESGGGLVQAGGSLRLSCAASGRIFYEYAMGWYRQAPGKERELVAISTSGGNTYYADSVKGRFTISRDNAKNTVYLQMNSLKPEDTAVYYCAARLQYYPYYYWGQGTQVTVSS = high polyreactivity
QVQLQESGGGLVQAGGSLRPSCAASGSISDGVPMGWYRQAPGEERELVATTVLGATTNYADSVKGRFTISRGNAKYTVYLQMNSLKPEETAVYYCAAPLRYDKGFSYWGQGTQVTVSS = low polyreactivity
QVQLVESGGGLVQAGGSLRLSSAASGNTFWHYAMGWYRQAPGKERELVAAITRSTGSTYYADSVKGRFTISRDNAKYSVYLQMNSLKPEDTAVYYCAADFYRHYFRVDSWGQGTQVTVSS = low polyreactivity
QVQLVESGGGLVQAGGSLRLSCAASGFICDYNAMGWYRQAPGKERELVAAISGGGGSTYYADSVKGRFTISRDNAKKTVYLQMNSLKPEDTAVYYCAKRYRGGYWGQGTQVTVSS = high polyreactivity
QVQLVESGGGLVQAGGSLRLSCAASGYVMGWYRQAPGKERELVAAITRGTSTYYADSVKGRFTISRDNAKNTVYLQMNSLKPEDTAVYYCAARTPGVSVYKDGYWGQGTQVTVSS = low polyreactivity

For QVQLVESGGGLVQAGGSLRLSCGGSGSTFYVNAMGWYRQAPGKEREFVAAITWNSGSTYYADSVKGRFTISRDNAKNTVYLQMHSLKPEDTAVYYCAAVLSVRVYGYDYWGQGTQVTVSS the sequence record lists polyreactivity (PSR sort gate) as low polyreactivity

So for QVQLVESGGGLVQAGGSLRLSCAASGSISSGYTMGWYRQAPGKERELVASIRSGGSTYYADSVKGRFTISRDNAKNTVYLQMNSLKPEDTAVYYCAARFFYRYSWGRTRGYDYWGQGTQVTVSS , the logged polyreactivity (PSR sort gate) turned out to be high polyreactivity

The measurements presented in this section are drawn from the nanobody polyreactivity screen of Harvey et al. (2022).
